STUDY TARGET: erythrocytes infected with P. falciparum field isolate 10936
PROTOCOL TEXT: flow cytometry, staining of IEs
Each entry below carries its recorded % parasite recognition.
# answer = value followed by unit

# BINDER, % parasite recognition
data = [
    ("MGC37 (antibody) VH: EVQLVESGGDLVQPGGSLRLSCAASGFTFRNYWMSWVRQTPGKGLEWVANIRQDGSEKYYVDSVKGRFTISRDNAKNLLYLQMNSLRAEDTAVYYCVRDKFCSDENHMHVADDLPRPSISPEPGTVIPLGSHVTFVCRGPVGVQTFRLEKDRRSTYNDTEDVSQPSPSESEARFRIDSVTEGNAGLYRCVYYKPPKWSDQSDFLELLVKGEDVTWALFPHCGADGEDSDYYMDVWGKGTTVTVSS VL: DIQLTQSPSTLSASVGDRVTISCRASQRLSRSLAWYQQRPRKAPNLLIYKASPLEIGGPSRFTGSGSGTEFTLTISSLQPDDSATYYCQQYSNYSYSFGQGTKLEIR", "4.1%"),
]

Please look at the following binder next.
Inquiry: Which % parasite recognition value belongs to MGD56 (antibody) VH: QVQLQESGPGLVKPSGTLSLTCAVSGGSITTNNWWSWVRQTPGKGLEWIGEIFRSGTTNYNPSLKSRVAISLDKSKNQFSLKLTSVTAADTAVYYCATASPFKSQRDTKDLPRPSLSAEPGTVIPLGSHVTFVCRGPVGVQTFRLQRESRSLYNDTEDVSHPSPSESEARFRIDSVSEGNAGPYRCVYYKSSKWSEESDCLELLVKTEDVTWARPQPQLDPRACPRGDLRISTDVYYMDVWGKGTTVTVSS VL: AIRMTQSPSSLSASTGDRVTITCRASQAITSYLAWYRQKPGKAPDLLIYNASTLQSGVPSRFSASGSGTDFALTITGLQSEDFVIYFCQHYYTYPPAFGQGTRLEIK ?
Reply text: 2.4%
